Reference source for all entries: the supplement of paper PMC9732359

runDescription: protein stability index of a GFP-peptide fusion (yeast GPS) (PSI 1-4); higher = more stable; sorted into four equal gates, so the index is relative within each strain
setupConditions: doa10∆
Documented protein stability index across a set of sequences
Please give the numeric answer without any surrounding text.

Example cases with answers are listed next.
- sequenceContent: "PLHSGKTSLMDLLVIDS [SNU114]"
  endpointName: "protein stability index"
  reportedResult: 2.48
- sequenceContent: "PEVSMIRDIREKELKIF [RPB2]"
  endpointName: "protein stability index"
  reportedResult: 3.13
- sequenceContent: "DLSLIVKARHGGCDYIF [CYT1]"
  endpointName: "protein stability index"
  reportedResult: 2.74
- sequenceContent: "HESYCLPMDTNLFKINS [YMR129W/POM152]"
  endpointName: "protein stability index"
  reportedResult: 1.54
- sequenceContent: "KPQLKFKSPIDNSESHP [RRP6]"
  endpointName: "protein stability index"
  reportedResult: 2.77

Please report the recorded protein stability index for TKESQPTIEEDLTRVYK [FAS2] .
3.46

protein stability index lookup needed for DNEQNLESDFVTGASQF [PRE2] , thanks.
2.92

Recorded protein stability index of DKGLLPYAIMETANEIL [RPO31] , please.
2.95

Which protein stability index is reported for this sequence? LEYYAMLSKTKVYYFQG [RPL30]
2.4

What does the record list as protein stability index for TIETFNEAALVVNITHH [RPB5] ?
1.69

# get_value(readout='protein stability index', item= FRFDSIQRETLLPTNNG [GRR1] )
2.59

Reported protein stability index for KASELKLALGIALEGYR [RPN2] : what is it?
2.62

For GLRTENVLDYFAESPFF [MED6] , what is its reported protein stability index?
3.35

Which protein stability index value is on record for PFSLTYVRTEETDGKHG [YMR129W/POM152] ?
3.13

----------
protein stability index: recorded values
runDescription: protein stability index of a GFP-peptide fusion (yeast GPS) (PSI 1-4); higher = more stable; sorted into four equal gates, so the index is relative within each strain
setupConditions: pdr5∆
I'd appreciate a reply containing only the number, no unit.

- sequenceContent: "TGDADEPELRVLSTEEI [RPO21]"
  protein stability index: 3.25
- sequenceContent: "SQVLDLAKKIAPGKVEL [SMC2]"
  protein stability index: 3.28

Moving on to another sequence below.
Record request: protein stability index value, item VVTSSVAESFTDEADSS [SNF2]
2.98

----------
runDescription: protein stability index of a GFP-peptide fusion (yeast GPS) (PSI 1-4); higher = more stable; sorted into four equal gates, so the index is relative within each strain
setupConditions: san1∆
protein stability index by entry:
The reply should be a number, written without any unit.

- sequenceContent: "ENTVGLISGAGANPRVL [RPN10]"
  reportedResult: 1.86

State the recorded protein stability index for this entry: YLLENNQVGTDELILPL [YDL116W/NUP84]
3.07

Would you kindly share the measured protein stability index for LLPTNNGQPLNQNFSLT [GRR1] ?
2.81

Which protein stability index value is on record for ETNLQTFLPPLLLKLAS [ECM29] ?
1.62

I'd like to know its protein stability index. The sequence in question is LNDRQEEISRLQRDLIQ [YIL149C/MLP2]
3.07

Given DYNLRIYCYFLIMKLGR [SSN8] , state its recorded protein stability index.
1.36

Dear colleague, I am looking for the recorded protein stability index of the following sequence: PSDMVIPDHLAELIPEL [SNF12]
2.88

Which protein stability index is reported for this sequence? AFGVSVAFLDNDLGKFI [RPN7]
3.07

Given the sequence DMQSSVDTGLQPQHPHY [YLR018C/POM34] , what is its reported protein stability index?
2.96

Name the reported protein stability index value associated with the sequence KTCQWYSEHLKPYDINV [DIS3]
2.74

protein stability index for DEADKMIDLGFEDQVTN [PRP28] ?
3.16

Which protein stability index is reported for this sequence? GQFVTLGCTLVTLLANV [RMP1]
2.73

Endpoint output: protein stability index of FNTNFDDEFGDLDAVFF [SNF6] . Value?
2.77

----------
runDescription: protein stability index of a GFP-peptide fusion (yeast GPS) (PSI 1-4); higher = more stable; sorted into four equal gates, so the index is relative within each strain
setupConditions: doa10∆
Below is a list of entries, each paired with its recorded protein stability index value.
Could you respond with only the numeric value?

Can you share its protein stability index? I mean this sequence: KILSPTMYMEVYTAIYN [CDC53]
1.58

Returns the measured protein stability index for the input sequence. Input: LESINEGNQIIVFVHSR [BRR2]
1.76

----------
runDescription: protein stability index of a GFP-peptide fusion (yeast GPS) (PSI 1-4); higher = more stable; sorted into four equal gates, so the index is relative within each strain
setupConditions: pdr5∆
endpointName: protein stability index

- sequenceContent: "IEIEDEKVSSVLSALEG [RPP2A]"
  protein stability index: 2.29
- sequenceContent: "PLPLDLNVQVWHIEETG [ITC1]"
  protein stability index: 2.17
- sequenceContent: "EIINNKTSSQTSLSSKD [YMR153W/NUP53]"
  protein stability index: 2.12
- sequenceContent: "REDMPFTAEGIVPDLII [RPB2]"
  protein stability index: 3.42
- sequenceContent: "LSFTPTTVIGIRGSDQA [RPN2]"
  protein stability index: 1.61

If you can, please state the reported protein stability index value of VSLTKRKQEREITSLRQ [YIL149C/MLP2] .
2.32

Recorded protein stability index of IISRLNADFQKPWFATV [FAS1] , please.
2.4

Looking for the measured protein stability index of TFGKKADVTSNIDSSAQ [YOR098C/NUP1] , can you help?
2.23

----------
runDescription: protein stability index of a GFP-peptide fusion (yeast GPS) (PSI 1-4); higher = more stable; sorted into four equal gates, so the index is relative within each strain
setupConditions: doa10∆
Criterion: protein stability index meeting or surpassing 3. Met: t. Not met: f.

Tell me whether protein stability index is at least 3 here: TELTHHLLPRNEWIKAQ [QCR7]
f

----------
runDescription: protein stability index of a GFP-peptide fusion (yeast GPS) (PSI 1-4); higher = more stable; sorted into four equal gates, so the index is relative within each strain
setupConditions: san1∆
Give TRUE when the value for protein stability index is at least 3. Give FALSE when it is less.

- sequenceContent: "ADNKEDVKKPFSFGTSQ [YLR335W/NUP2]"
  classification: "FALSE"
- sequenceContent: "EMTLPTSPLYMDPGAPL [SSN2]"
  classification: "FALSE"
- sequenceContent: "EPYARVSGDLNPIHVSR [FAS1]"
  classification: "FALSE"
- sequenceContent: "QTKEIKTERVEDQKVVD [RPL6B]"
  classification: "TRUE"
- sequenceContent: "NNNNTNTQPSASGFGFG [YGR119C/NUP57]"
  classification: "FALSE"
- sequenceContent: "AKRIRVSHHATTFTHCE [RPB2]"
  classification: "FALSE"

Assess whether reported protein stability index for EIGLLGGRYVYPVHEAH [SNU114] sits at 3 or higher.
FALSE

Can RNVEQKLNELDELILEA [NNF1] be said to have protein stability index at or above 3?
TRUE

Has TTDSLTKVLQADLPGSY [YMR129W/POM152] a recorded protein stability index greater than or equal to 3?
FALSE

Does PCLRKYEEFRDVAIENN [RRP43] have a reported protein stability index of at least 3?
FALSE

In plain terms: is recorded protein stability index at least 3 for FLNHAFDYMNRYWVQKE [CDC53] ?
FALSE

Could you tell me if the measured protein stability index of SAIRKCVRVQLIKNGKK [RPS23A] reaches 3 or more?
FALSE

----------
protein stability index reference
runDescription: protein stability index of a GFP-peptide fusion (yeast GPS) (PSI 1-4); higher = more stable; sorted into four equal gates, so the index is relative within each strain
setupConditions: san1∆
Response field accepts a number only; no unit should be typed.

// protein stability index lookup, key: RHLPMYTEFIDSFIEKI [ITC1]
2.85

// lookup protein stability index for YLAENPDPNFENSIGYN [PRP8]
3.12

GET /values?readout=protein stability index&item= TPDDDEIDVENHDRINI [RPN8]
2.75

----------
runDescription: protein stability index of a GFP-peptide fusion (yeast GPS) (PSI 1-4); higher = more stable; sorted into four equal gates, so the index is relative within each strain
setupConditions: doa10∆
Label no if protein stability index falls below 3; label yes in every other case.

- sequenceContent: "KNYPEYFLKVTFLKYFG [IRR1]"
  classification: "no"
- sequenceContent: "PTGPKTAIDKNGNITYS [FAS2]"
  classification: "no"
- sequenceContent: "KILAGLHDTQIEGKLHM [RPN10]"
  classification: "yes"
- sequenceContent: "EDCVEEFFHLQHYLDTA [QCR6]"
  classification: "yes"
- sequenceContent: "MFLEFQSTQTDLEKTER [SMC2]"
  classification: "yes"
- sequenceContent: "KRKWSYVLYAKIVVLSR [RRP43]"
  classification: "no"

Kindly consider the entry below.
Reported protein stability index reaches at least 3 for INSSNEALVQAFAFCIP [YCG1] ?
no
